Test system: P. falciparum MMV019721-resistant lines (3D7-A10 or Dd2-B2 derived)
protocol summary: Dose-response assay of MMV019721-selected resistant lines (bulk cultures and clones)
Type: cell-based
condition context: Plasmodium falciparum, read-out: PfAcAS:T648M EC50, range over T648M clones
pEC50: −log10 of the molar value.
measured parameter: pEC50

Name the recorded pEC50 for CCN(CC)S(=O)(=O)c1ccc(Cl)c(C(=O)Nc2ccc3nc(C)sc3c2)c1 [MMV019721] .
5.08 to 5.17

====

Test system: P. falciparum MMV084978-resistant clones (Dd2-B2 derived)
protocol summary: Dose-response assay of MMV084978-selected resistant clones
Assay type: cell-based
condition context: Plasmodium falciparum, DD2, read-out: MMV084978 mean EC50 (nM) ± SD (n), selection 1, Dd2-B2, clone E5, sequencing not determined
measured parameter: EC50 (nM)
Lab book: enter the figure in nM, no units written.

Give the reported EC50 for O=C(NNC(=O)c1csnn1)c1ccc(Cl)cc1 (system: P. falciparum MMV084978-resistant clones (Dd2-B2 derived)).
2600

====

Test system: P. falciparum MMV084978-resistant clones (Dd2-B2 derived)
protocol summary: Dose-response assay of MMV084978-selected resistant clones
Assay type: cell-based
condition context: Plasmodium falciparum, DD2, read-out: MMV084978 mean EC50 (nM) ± SD (n), selection 2, Dd2-B2, clone H12, AcAS:Y607C
measured parameter: EC50

Need EC50, item O=C(NNC(=O)c1csnn1)c1ccc(Cl)cc1
970 nM

====

System: P. falciparum MMV019721-resistant lines (3D7-A10 or Dd2-B2 derived)
protocol summary: Dose-response assay of MMV019721-selected resistant lines (bulk cultures and clones)
Format: cell-based
condition context: Plasmodium falciparum, read-out: MMV019721 mean EC50 (nM) ± SD (n), selection 3, Dd2-B2, clone F2, AcAS:A597V
measured parameter: EC50 (nM)
Kindly answer with a numeric value in nM, unit omitted.

Can you look up EC50 on P. falciparum MMV019721-resistant lines (3D7-A10 or Dd2-B2 derived) for CCN(CC)S(=O)(=O)c1ccc(Cl)c(C(=O)Nc2ccc3nc(C)sc3c2)c1 [MMV019721] ?
9000

====

Provide the recorded Metabolite data: dGDP/ADP for the entries that follow.
Tested on: P. falciparum 3D7 parasites
protocol summary: Metabolomic profiling of compound-treated parasites (LC/MS)
Format: cell-based
A bare number is all that is needed in reply.

Look up Metabolite data: dGDP/ADP for this compound: COc1cc2[nH]c(C)c(-c3ccc(Oc4ccc(OC(F)(F)F)cc4)cc3)c(=O)c2cc1Cl [ELQ-300]
-0.01599

Here is the next compound: O=C1C(O)=C([C@H]2CC[C@H](c3ccc(Cl)cc3)CC2)C(=O)c2ccccc21 [Atovaquone, reference compound]
0

Okay, and CCN(CC)S(=O)(=O)c1ccc(Cl)c(C(=O)Nc2ccc3nc(C)sc3c2)c1 [MMV019721-1] ?
0.453

# iterate: O=C(NNC(=O)c1csnn1)c1ccc(Cl)cc1 [MMV084978-1]
-0.04263

Please answer likewise for CC1(C)N=C(N)N=C(N)N1OCCCOc1cc(Cl)c(Cl)cc1Cl [WR99210]
0

What would you report for CCc1nc(N)nc(N)c1-c1ccc(Cl)cc1 [Pyrimethamine] ?
0.2431

Another: N#Cc1cc(NC(=O)[C@H]2c3ccccc3C(=O)N(CC(F)(F)F)[C@@H]2c2cccnc2)ccc1F [SJ733]
-2.35

Item: Cc1cc(Nc2ccc3ccccc3c2)n2ncnc2n1 [DSM1]
0.1331

Another compound: C[C@H]1Cc2c([nH]c3cc(Cl)c(F)cc23)[C@@]2(N1)C(=O)Nc1ccc(Cl)cc12 [NITD609]
0

====

What Metabolite data: 2_3-Diphosphoglyceric acid was measured for each of the following?
Test system: P. falciparum 3D7 parasites
protocol summary: Metabolomic profiling of compound-treated parasites (LC/MS)
Assay type: cell-based

Find the measured Metabolite data: 2_3-Diphosphoglyceric acid: item O=C(NNC(=O)c1csnn1)c1ccc(Cl)cc1 [MMV084978-1] , target or system P. falciparum 3D7 parasites.
0.1496

Can you handle COc1cc2[nH]c(C)c(-c3ccc(Oc4ccc(OC(F)(F)F)cc4)cc3)c(=O)c2cc1Cl [ELQ-300] next?
-0.1098

What about this molecule? O=C1C(O)=C([C@H]2CC[C@H](c3ccc(Cl)cc3)CC2)C(=O)c2ccccc21 [Atovaquone, reference compound]
-0.24

Same lookup for Cc1cc(Nc2ccc3ccccc3c2)n2ncnc2n1 [DSM1] , please.
-0.2991

Another: C[C@H]1Cc2c([nH]c3cc(Cl)c(F)cc23)[C@@]2(N1)C(=O)Nc1ccc(Cl)cc12 [NITD609]
-2.22

====

Provide the recorded Metabolite data: GTP for the entries that follow.
Tested on: P. falciparum 3D7 parasites
protocol summary: Metabolomic profiling of compound-treated parasites (LC/MS)
Type: cell-based
Output spec: single numeric token, no unit.

Lab note: need Metabolite data: GTP for O=C1C(O)=C([C@H]2CC[C@H](c3ccc(Cl)cc3)CC2)C(=O)c2ccccc21 [Atovaquone, reference compound] on P. falciparum 3D7 parasites, anyone have it?
0.09

One more molecule: N#Cc1cc(NC(=O)[C@H]2c3ccccc3C(=O)N(CC(F)(F)F)[C@@H]2c2cccnc2)ccc1F
-1.102

CC1(C)N=C(N)N=C(N)N1OCCCOc1cc(Cl)c(Cl)cc1Cl , same question.
-0.36

Now give it for CCN(CC)S(=O)(=O)c1ccc(Cl)c(C(=O)Nc2ccc3nc(C)sc3c2)c1 too.
0.06975

Now the same for Cc1cc(Nc2ccc3ccccc3c2)n2ncnc2n1
-1.061

Now give it for C[C@H]1Cc2c([nH]c3cc(Cl)c(F)cc23)[C@@]2(N1)C(=O)Nc1ccc(Cl)cc12 too.
-1.11

Same for COc1cc2[nH]c(C)c(-c3ccc(Oc4ccc(OC(F)(F)F)cc4)cc3)c(=O)c2cc1Cl
0.1697

O=C(NNC(=O)c1csnn1)c1ccc(Cl)cc1 ?
0.3192

Another molecule to check: CCc1nc(N)nc(N)c1-c1ccc(Cl)cc1
-0.6779

====

Task for the reader: assign each of the following compounds its reported Metabolite data: 1_3-Bisphosphoglyceric acid.
System: P. falciparum 3D7 parasites
protocol summary: Metabolomic profiling of compound-treated parasites (LC/MS)
Format: cell-based
Parameters: scale not given here
Lab note: jot down the number only; don't add units.

Looking for the measured Metabolite data: 1_3-Bisphosphoglyceric acid of Cc1cc(Nc2ccc3ccccc3c2)n2ncnc2n1 , can you help?
0

And for CC1(C)N=C(N)N=C(N)N1OCCCOc1cc(Cl)c(Cl)cc1Cl ?
0

How about this compound: CCN(CC)S(=O)(=O)c1ccc(Cl)c(C(=O)Nc2ccc3nc(C)sc3c2)c1
-0.1327

Request: O=C1C(O)=C([C@H]2CC[C@H](c3ccc(Cl)cc3)CC2)C(=O)c2ccccc21 [Atovaquone, reference compound]
0

N#Cc1cc(NC(=O)[C@H]2c3ccccc3C(=O)N(CC(F)(F)F)[C@@H]2c2cccnc2)ccc1F , same question.
0

Repeat with COc1cc2[nH]c(C)c(-c3ccc(Oc4ccc(OC(F)(F)F)cc4)cc3)c(=O)c2cc1Cl
0

Then this compound: CCc1nc(N)nc(N)c1-c1ccc(Cl)cc1
0

// query: C[C@H]1Cc2c([nH]c3cc(Cl)c(F)cc23)[C@@]2(N1)C(=O)Nc1ccc(Cl)cc12
0

Queued: O=C(NNC(=O)c1csnn1)c1ccc(Cl)cc1
0.1496

====

target or test system: HsAcAS WT (Homo sapiens)
Construct: made in house; host or cells: Expi293 cells (pCDNA 3.1, transient transfection)
Sequence (Q9NR19 whole entry): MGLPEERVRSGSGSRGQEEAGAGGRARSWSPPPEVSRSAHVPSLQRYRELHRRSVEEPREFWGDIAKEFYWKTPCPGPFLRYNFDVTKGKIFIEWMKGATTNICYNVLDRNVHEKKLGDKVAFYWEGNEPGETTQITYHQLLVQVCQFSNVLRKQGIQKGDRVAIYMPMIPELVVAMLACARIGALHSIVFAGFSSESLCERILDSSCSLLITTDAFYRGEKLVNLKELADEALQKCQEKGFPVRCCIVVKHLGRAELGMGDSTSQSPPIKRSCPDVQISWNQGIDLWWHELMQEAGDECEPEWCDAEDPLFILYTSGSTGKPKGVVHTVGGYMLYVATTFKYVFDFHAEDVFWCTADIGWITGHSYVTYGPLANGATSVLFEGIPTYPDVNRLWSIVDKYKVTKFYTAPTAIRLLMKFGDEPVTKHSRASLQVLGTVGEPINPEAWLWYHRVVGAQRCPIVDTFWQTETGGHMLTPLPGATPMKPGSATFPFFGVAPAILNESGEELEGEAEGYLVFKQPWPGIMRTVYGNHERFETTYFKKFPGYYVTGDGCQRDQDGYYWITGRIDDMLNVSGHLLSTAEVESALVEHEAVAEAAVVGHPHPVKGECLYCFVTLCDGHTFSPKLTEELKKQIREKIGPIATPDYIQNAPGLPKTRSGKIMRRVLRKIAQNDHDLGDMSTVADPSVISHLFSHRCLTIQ
protocol summary: HsAcAS Rapid-Fire QQQ mass spectrometry assay
Type: biochemical
condition context: approximate Km for each substrate; read-out: IC50 (μM), AcAS HsWT
measured parameter: IC50 (µM)
Report only the number, with the unit µM understood.

Hi! What's the reported IC50 for O=C(NNC(=O)c1csnn1)c1ccc(Cl)cc1 [MMV084978] on HsAcAS WT (Homo sapiens)?
18

====

System: P. falciparum 3D7 parasites
protocol summary: Metabolomic profiling of compound-treated parasites (LC/MS)
Type: cell-based
Values of Metabolite data: Glutathione Disulfide strictly less than -0.004 map to YES, and values of at least -0.004 map to NO.

For Cc1cc(Nc2ccc3ccccc3c2)n2ncnc2n1 , is the recorded Metabolite data: Glutathione Disulfide below the cut-off of -0.004?
YES

What do you get for CC1(C)N=C(N)N=C(N)N1OCCCOc1cc(Cl)c(Cl)cc1Cl ?
NO

And then CCc1nc(N)nc(N)c1-c1ccc(Cl)cc1 , what is it?
NO

Then this compound: O=C(NNC(=O)c1csnn1)c1ccc(Cl)cc1
YES

Query N#Cc1cc(NC(=O)[C@H]2c3ccccc3C(=O)N(CC(F)(F)F)[C@@H]2c2cccnc2)ccc1F next
NO

Could you do the same for COc1cc2[nH]c(C)c(-c3ccc(Oc4ccc(OC(F)(F)F)cc4)cc3)c(=O)c2cc1Cl , please?
YES

Then what about the compound CCN(CC)S(=O)(=O)c1ccc(Cl)c(C(=O)Nc2ccc3nc(C)sc3c2)c1 ?
NO

And for O=C1C(O)=C([C@H]2CC[C@H](c3ccc(Cl)cc3)CC2)C(=O)c2ccccc21 [Atovaquone, reference compound] ?
NO

Please answer likewise for C[C@H]1Cc2c([nH]c3cc(Cl)c(F)cc23)[C@@]2(N1)C(=O)Nc1ccc(Cl)cc12
YES
